tested on: OVCAR-4 ovarian; experiment: NCI-60 one-dose screen, 48 h (100 = growth as untreated, 0 = no growth, -100 = all killed); conditions: 10 µM unless noted
This is part of a sample that, as a whole, favours compounds with a hit. Of some 83,000 tested, about 20% had one in any assay.
parameter: growth (%)
Please reply with the bare figure in % and do not write the unit itself.

IN: Which growth is reported for this molecule? N/N=C(\C(=N\N)c1ccccc1)c1ccccc1
OUT: 77.3

IN: Okay, and Cn1cnc([N+](=O)[O-])c1S(=O)(=O)Oc1ccccc1 ?
OUT: 112

IN: Also need COc1ccc2nc(C)cc(Sc3nc4ccccc4s3)c2c1 , thanks.
OUT: 25.8

IN: Please do the same for C#CCNc1nc(NCCNC(=O)CCl)nc(N(C)CCCCc2ccccc2)n1 as well.
OUT: 96.6

IN: Moving on to the next molecule: COc1cc(-c2nn(C(=O)NCCN3CCN(C)CC3)cc2-c2ccncc2)ccc1Cl
OUT: 78

IN: What about this molecule? c1coc(CNc2c3ccccc3nc3ccccc23)c1
OUT: 56.2

IN: Please answer likewise for OCCN(CCO)c1ccc2ccccc2c1
OUT: 104

IN: What would you report for C=CCOC(=O)C1=C(C)NC2=C(C(=O)CC(C)(C)C2)C1c1ccc(OC)cc1 (stereo unspecified) ?
OUT: 110

IN: # repeat for N=C(N)c1ccc(NCCNc2ccc(C(=N)N)cc2)cc1
OUT: 110

IN: What do we get for S=C(S)Oc1cccc2cccnc12 ?
OUT: 92.2

IN: Quick one: C[C@@H]1CC2C3CCC4=CC(=O)C=C[C@]4(C)[C@@]3(Cl)[C@@H](O)C[C@]2(C)[C@@]1(OC(=O)c1ccco1)C(=O)CCl (stereo partly specified)
OUT: 67.7
